// reported activity change, negative = inhibition for each item listed
Assay: AP1 Signaling Pathway (AID 357);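 further: ME-180 reporter cells stimulated with EGF at its EC50 level; on the % scale 0 is the no-effect control and ±100 the full control effect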
Details: ME-180 AP-1-bla reporter, EGF-induced, beta-lactamase ratio, 5 h; at 17.2 µM (top of the series) unless noted
Description: NCGC Assay Overview: Activator protein-1 (AP-1), a transcription factor, plays an important role in tumor genesis by regulating genes involved in cell proliferation, differentiation, apoptosis, and angiogenesis. AP-1 activity is induced by a complex network of signaling pathways that involves extracellular signals, such as growth factors. […] Library compounds were measured for their ability to modulate positively or negatively the action of EC50 EGF on reporter gene activity. […]
Results filed as inconclusive are left out. Activity calls are given as the source filed them. The call rests on the fitted dose curve; in most records, active means well fitted curve in either direction with a large enough effect (not every such curve was filed as active); inconclusive means small, poorly fitted or top-dose-only effect, or another doubt; inactive means flat fitted curve, though single readings scatter.

| Molecule | Test Readout | Endpoint Result |
| --- | --- | --- |
| O=C(O)c1cc(Cl)cc(Cc2cc(Cl)cc(C(=O)O)c2O)c1O | activity change, negative = inhibition | 10.2% [at 7.69 µM] (inactive) |
| Cc1ccc(-c2n[nH]c(=O)c3ccccc23)cc1S(=O)(=O)NCCN1CCOCC1 | activity change, negative = inhibition | 1.31% (inactive) |

For Clc1ccc(-c2nnc3sc(Cc4cccs4)nn23)cc1 the molecule record lists activity change, negative = inhibition as 2.06% (inactive)

For this molecule ( CN1CCN(CCC(=O)N2c3ccccc3Sc3ccc(Cl)cc32)CC1 ), measured activity change, negative = inhibition is 12.7% (inactive)

Form: molecule = Cc1cc(=O)oc2ccc(OCC(=O)N3CCc4ccccc43)cc12 ; activity change, negative = inhibition = 2.4% (inactive)

# activity change, negative = inhibition (molecule: CCSc1nnc(NC(=O)C(CC)(C(F)(F)F)C(F)(F)F)s1 ) is -19% (inactive)

Please fill in: activity change, negative = inhibition reported for CCN(CC)c1nc(N2CCOCC2)c(C#N)c2c1CN(C)CC2 = -1.52% (inactive)

The molecule O=C1CC(c2ccccc2)NC(=O)N1 (centres undefined) showed activity change, negative = inhibition equal to 8.17% (inactive)

Documented activity change, negative = inhibition of COc1ccc(/C(O)=C2\C(=O)C(=O)N(CCN(C)C)C2c2cccc(OC)c2OC)cc1Cl (centres undefined) : -2.56% (inactive)

According to the records, this molecule CC1(c2cnc(Nc3ccccc3)s2)CCC(=O)O1 (centres undefined) displays activity change, negative = inhibition of -10.6% (inactive)

// activity change, negative = inhibition value for CCOC(=O)C1CCCN(c2nc3ccccc3nc2C(C#N)C(=O)OC(C)COC)C1 (centres undefined) : -5.69% (inactive)

activity change, negative = inhibition in this record for CCOC(=O)CSC1=C(C#N)C(c2ccc(C)cc2)C(C(=O)OC)C(=O)N1 (centres undefined) : 8.51% (inactive)

Lab book: activity change, negative = inhibition of COc1ccc(C(=O)N2CCC(N3CCN(c4ccccc4)CC3)CC2)cc1OC noted as 11.1% (inactive)

Sure, the documented activity change, negative = inhibition for N#Cc1c(NC(=O)CCC(=O)O)sc2c1CCCC2 is -1.32% (inactive)

Input CCN1CC2=C(OC(N)=C(C#N)C2c2ccccc2)/C(=C\c2ccccc2)C1 (centres undefined) . Output activity change, negative = inhibition: -16.4% (inactive)

The reported value for Cc1nn(C)cc1/C=N/O in terms of activity change, negative = inhibition is 10.9% (inactive)

Record Cc1ccc(OCC(=O)N(C)CCc2ccccn2)cc1 , field activity change, negative = inhibition: -3.13% (inactive)

// field: activity change, negative = inhibition; key: C1CCCN(CCCCN2CCCCCC2)CC1 ; value = 3.84% (inactive)

The molecule CCOC(=O)c1c(CN2CCN(C)CC2)n(C)c2cc(Br)c(OC)cc12 showed activity change, negative = inhibition equal to 5.82% (inactive)

The value of activity change, negative = inhibition measured for the molecule Cc1nc(-c2c(-c3ccc(O)cc3O)noc2C(F)(F)F)cs1 turned out to be -11.8% (inactive)

###

test system: 7G8; assay: qHTS profiling for inhibitors of Plasmodium falciparum proliferation (AID 504749); further: nearly all actives have a fitted effect of over 60% in size; conditions: P. falciparum in erythrocytes, SYBR Green DNA, 72 h; series mostly up to 28.7 µM
Inconclusive results are not listed. The source made the active and inactive calls. Calls come from the whole dose curve; as a rule, active = well fitted inhibition curve with a large enough effect; inconclusive = small, poorly fitted or top-dose-only effect; inactive = flat fitted curve, though single readings scatter.
Parameter call: string, one of yes (1) = active, no (0) = inactive

| Compound | Label |
| --- | --- |
| CC1CCC(C(C)C)C(O)C1 (stereo unspecified) | no (0) |
| C/C(=C(/CCO)SS/C(CCO)=C(\C)N(C=O)Cc1cnc(C)nc1N)N(C=O)Cc1cnc(C)nc1N | no (0) |
| CCCCC(=O)OCC(=O)[C@]1(O)Cc2c(O)c3c(c(O)c2[C@H](OC2CC(NC(=O)C(F)(F)F)C(O)C(C)O2)C1)C(=O)c1c(OC)cccc1C3=O (stereo partly specified) | yes (1) |
| C[C@@H](O)[C@@H]1C(=O)N2C(C(=O)O)=C([C@H]3CCCO3)S[C@H]12 | no (0) |
| CN(C)CC[C@@](O)(c1ccccc1)c1ccccc1Cl | yes (1) |

What classification did NC(=O)C1CC2(NC(=O)NC2=O)c2cc(F)ccc2O1 (stereo unspecified) end up with in this test?
no (0)

I'd appreciate the recorded outcome for C=C1CC[C@H](O)C/C1=C/C=C1\CCC[C@]2(C)[C@@H]([C@H](C)CC[C@@H](O)C(C)(C)O)CC[C@@H]12 from this test.
yes (1)

Could you kindly confirm the outcome this assay logged for Oc1cc2cc(CCN3CCN(c4nsc5ccccc45)CC3)c(Cl)cc2[nH]1 ?
yes (1)

Answer briefly: the call reported for CC1OC(OC2CCC3(C)C(CCC4C3CC(O)C3(C)C(C5=CC(=O)OC5)CCC43O)C2)CC(O)C1OC1CC(O)C(OC2CC(O)C(OC3OC(CO)C(O)C(O)C3O)C(C)O2)C(C)O1 (stereo unspecified) in this assay.
no (0)

Could you kindly confirm the outcome this assay logged for CC[C@@]1(O)CC2CN(CCc3c([nH]c4ccccc34)[C@](C(=O)OC)(c3cc4c(cc3OC)N(C)C3[C@@](O)(C(=O)OC)C(OC(C)=O)[C@]5(CC)C=CCN6CC[C@@]43C65)C2)C1 (stereo partly specified) ?
yes (1)

Please indicate how the test categorized Cc1cn([C@H]2CC(F)[C@@H](CO)O2)c(=O)[nH]c1=O (stereo partly specified) .
no (0)

Give the logged outcome of this assay for the following compound: CCOC(=O)C(CCc1ccccc1)NC(C)C(=O)N1Cc2cc(OC)c(OC)cc2CC1C(=O)O (stereo unspecified)
yes (1)

Name the outcome recorded for O=C(O)Cc1sc(-c2ccc(Cl)cc2)nc1-c1ccccc1 in the assay.
no (0)

Kindly provide the recorded test outcome for the following compound: CCCCCCCCCCCCCCCC(=O)OC[C@H](O)[C@H]1OC[C@@H](O)[C@@H]1O
no (0)

What was the test verdict on N#C/C(=C1/SCC(c2ccccc2Cl)S1)n1ccnc1 (stereo unspecified) ?
yes (1)

Please share the test call associated with CO[C@H]1C[C@@H]2CC[C@@H](C)[C@@](O)(O2)C(=O)C(=O)N2CCCC[C@H]2C(=O)O[C@H]([C@H](C)C[C@@H]2CC[C@@H](O)[C@H](OC)C2)CC(=O)[C@H](C)/C=C(\C)[C@@H](O)[C@@H](OC)C(=O)[C@H](C)C[C@H](C)/C=C/C=C/C=C/1C .
yes (1)

###

tested on: W2; test: qHTS profiling for inhibitors of Plasmodium falciparum proliferation (AID 504749); further: nearly all actives have a fitted effect of over 60% in size; conditions: P. falciparum in erythrocytes, SYBR Green DNA, 72 h; series mostly up to 28.7 µM
Results filed as inconclusive are left out. Active and inactive are the calls of the source. The call rests on the fitted dose curve; in most records, active means well fitted inhibition curve with a large enough effect; inconclusive means small, poorly fitted or top-dose-only effect; inactive means flat fitted curve, though single readings scatter.
Test Readout: outcome

| Compound | Target Of Assay | Test Readout | Endpoint Result |
| --- | --- | --- | --- |
| OCC(CO)NC1C[C@](O)(CO)[C@@H](O)[C@H](O)[C@H]1O (stereo partly drawn) | W2 | outcome | inactive |
| CC1OC(OC2CCC3(C)C(CCC4C3CC(O)C3(C)C(C5=CC(=O)OC5)CCC43O)C2)CC(O)C1OC1CC(O)C(OC2CC(O)C(OC3OC(CO)C(O)C(O)C3O)C(C)O2)C(C)O1 (stereo not drawn) | W2 | outcome | inactive |
| Cc1ccc(S(=O)(=O)NC(=O)NC(C)Cc2ccccc2)cc1 (stereo not drawn) | W2 | outcome | inactive |

###

experiment: AP1 Signaling Pathway (AID 357); settings: ME-180 (cervical carcinoma) AP-1-bla reporter, EGF-induced, beta-lactamase ratio, 5 h; at 17.2 µM (top of the series) unless noted;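 further: ME-180 reporter cells stimulated with EGF at its EC50 level; on the % scale 0 is the no-effect control and ±100 the full control effect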
Results filed as inconclusive are left out. Activity calls are given as the source filed them. The call rests on the fitted dose curve; in most records, active means well fitted curve in either direction with a large enough effect (not every such curve was filed as active); inconclusive means small, poorly fitted or top-dose-only effect, or another doubt; inactive means flat fitted curve, though single readings scatter.
The entries below are paired with their reported activity change, negative = inhibition.

| Molecule | activity change, negative = inhibition |
| --- | --- |
| CCSc1nnc(NC(=O)C(C(F)(F)F)C(F)(F)F)s1 | -16.3% (inactive) |
| CCN(CC)C(=O)CSC1=C(C#N)C(c2ccco2)C(C(=O)OCCOC)=C(C)N1 (stereo not drawn) | -10.6% (inactive) |
| CCCCCCCCCCCCCCCCCCOC[C@@H](COP(=O)([O-])OCC[N+](C)(C)C)OC | 29% [at 38 µM] (inactive) |
| Cc1nnc(C)n1/N=C/c1cc(Br)cc(Br)c1O | -5.92% (inactive) |
| CCOC(=O)CSc1nc(N)c(C#N)c(-c2ccc(OC)cc2)c1C#N | -27.1% (inactive) |
| COc1ccccc1N1CCN(C2CCN(C(=O)c3cc(OC)c(OC)c(OC)c3)CC2)CC1 | 12.5% (inactive) |
| c1ccc2c(c1)[nH]c1c(N3CCN(C4CCCCC4)CC3)ncnc12 | 2.02% (inactive) |
| Cc1nnc2n(-c3ccccc3)c(=O)c3c4c(sc3n12)CC(C)CC4 (stereo not drawn) | 3.4% (inactive) |

The measured activity change, negative = inhibition associated with COC(=O)c1ccc(N2C(=O)CC(N3CCN(C(=O)c4ccco4)CC3)C2=O)cc1 (stereo not drawn) reads 3.9% (inactive)

Sample C=CCNC(=O)C(C#N)c1nc2ccccc2nc1N1CCCCCC1 (stereo not drawn) ; activity change, negative = inhibition observed: -18.4% (inactive)

get_value(item= Nc1c(C(=O)NCC2CCCO2)c2nc3ccccc3nc2n1/N=C/c1ccncc1 (stereo not drawn) , readout=activity change, negative = inhibition) returns -7.06% (inactive)

Reported activity change, negative = inhibition of Cc1c(C2Nc3ccccc3NC3=C2C(=O)CC(C)(C)C3)cnn1C (stereo not drawn) : -9.46% (inactive)

Briefly, activity change, negative = inhibition measured for CN(C)c1ccc(C=NCCC2(O)CCOC(C)(C)C2)cc1 (stereo not drawn) : 0.733% (inactive)

Lab book: activity change, negative = inhibition of CCC(=NC(CC)CO)C1=C(O)CC(C)(C)CC1=O (stereo not drawn) noted as 16.1% (inactive)

The measurements presented in this section are drawn from PubChem BioAssay (NCATS).
